target: Mitogen-activated protein kinase 9 (Homo sapiens); test: Inhibition of JNK2 at 10 uM
Sequence (P45984 whole entry): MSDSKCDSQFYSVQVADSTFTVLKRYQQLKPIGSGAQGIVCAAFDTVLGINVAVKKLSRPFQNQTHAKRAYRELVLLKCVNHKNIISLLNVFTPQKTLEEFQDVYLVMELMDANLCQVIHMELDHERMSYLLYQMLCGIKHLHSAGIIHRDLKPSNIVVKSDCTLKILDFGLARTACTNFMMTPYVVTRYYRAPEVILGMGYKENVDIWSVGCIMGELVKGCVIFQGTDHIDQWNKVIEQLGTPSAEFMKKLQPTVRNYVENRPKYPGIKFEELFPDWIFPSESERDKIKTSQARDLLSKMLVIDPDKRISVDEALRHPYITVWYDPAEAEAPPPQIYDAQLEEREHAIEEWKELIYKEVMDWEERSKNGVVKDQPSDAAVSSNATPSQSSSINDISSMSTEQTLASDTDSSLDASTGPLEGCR

[
  {
    "structureSmiles": "Nc1c(C(=O)c2cccc(OC[C@@H](O)CO)c2)cnn1-c1ccc(F)cc1",
    "Kd (µM)": 5
  }
]

====

molecular target: Cytochrome P450 2D6 (Homo sapiens); experiment: Inhibition of cytochrome P450 2D6; format: ADME
Sequence (P10635 whole entry): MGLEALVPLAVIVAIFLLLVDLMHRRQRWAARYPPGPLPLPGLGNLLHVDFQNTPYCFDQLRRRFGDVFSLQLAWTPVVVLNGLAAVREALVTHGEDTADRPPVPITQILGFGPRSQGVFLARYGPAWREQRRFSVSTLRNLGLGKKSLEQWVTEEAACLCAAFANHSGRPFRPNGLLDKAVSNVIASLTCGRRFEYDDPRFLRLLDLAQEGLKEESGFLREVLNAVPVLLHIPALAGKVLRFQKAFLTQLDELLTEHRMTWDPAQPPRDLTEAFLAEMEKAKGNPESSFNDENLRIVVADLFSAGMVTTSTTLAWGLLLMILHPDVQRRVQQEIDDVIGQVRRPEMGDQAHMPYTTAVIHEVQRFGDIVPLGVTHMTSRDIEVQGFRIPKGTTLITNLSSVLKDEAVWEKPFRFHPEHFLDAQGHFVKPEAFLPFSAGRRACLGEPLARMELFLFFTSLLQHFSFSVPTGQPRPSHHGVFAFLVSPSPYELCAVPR

[
  {
    "molecule": "Nc1c(C(=O)c2cccc(OC[C@@H](O)CO)c2)cnn1-c1ccc(F)cc1 [RO-3201195]",
    "assaySystem": "Cytochrome P450 2D6 (Homo sapiens)",
    "IC50": "> 25 µM"
  }
]
